- study target: human α1a receptor (Homo sapiens)
- Sequence (P35348 whole entry): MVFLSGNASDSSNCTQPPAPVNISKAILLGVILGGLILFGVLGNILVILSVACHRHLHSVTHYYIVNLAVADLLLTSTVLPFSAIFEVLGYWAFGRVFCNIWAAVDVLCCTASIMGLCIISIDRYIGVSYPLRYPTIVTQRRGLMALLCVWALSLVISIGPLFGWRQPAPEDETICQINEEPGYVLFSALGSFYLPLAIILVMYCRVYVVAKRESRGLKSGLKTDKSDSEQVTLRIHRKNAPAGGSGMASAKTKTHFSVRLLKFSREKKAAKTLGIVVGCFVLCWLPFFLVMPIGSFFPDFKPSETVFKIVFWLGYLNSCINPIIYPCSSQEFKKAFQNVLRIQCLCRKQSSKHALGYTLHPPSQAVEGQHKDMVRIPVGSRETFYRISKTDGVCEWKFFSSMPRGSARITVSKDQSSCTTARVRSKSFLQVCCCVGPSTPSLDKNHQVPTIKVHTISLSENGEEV
pKi: −log10 of the molar value. Structures can show the parent of a compound that is named as a salt.
Recorded pKi for the following molecules
endpoint: pKi

molecule="NC(=O)c1ccccc1N1CCN(CCCNC(=O)N2C(=O)COCC2c2ccc(F)c(F)c2)CC1 (stereo not drawn) [Compound 4]" study_target="human α1a receptor (Homo sapiens)" measured_result=7.49
molecule="CC1(C)OCC(=O)N(C(=O)NCCCN2CCC(c3ccccn3)CC2)C1c1ccc(F)c(F)c1 (stereo not drawn) [Compound 17, hydrochloride]" study_target="human α1a receptor (Homo sapiens)" measured_result=8.42
molecule="COc1ccc(F)cc1C1(c2ccccc2)CCN(CCCNC(=O)N2C(=O)COCC2c2ccc(F)c(F)c2)CC1 (single isomer, unassigned; (+)) [Compound 1]" study_target="human α1a receptor (Homo sapiens)" measured_result=8.80

* * *

# Lookup of reported pKi keyed by entry
- study target: human α1d receptor (Homo sapiens, UniProt P25100)
- Sequence (P25100 1-572): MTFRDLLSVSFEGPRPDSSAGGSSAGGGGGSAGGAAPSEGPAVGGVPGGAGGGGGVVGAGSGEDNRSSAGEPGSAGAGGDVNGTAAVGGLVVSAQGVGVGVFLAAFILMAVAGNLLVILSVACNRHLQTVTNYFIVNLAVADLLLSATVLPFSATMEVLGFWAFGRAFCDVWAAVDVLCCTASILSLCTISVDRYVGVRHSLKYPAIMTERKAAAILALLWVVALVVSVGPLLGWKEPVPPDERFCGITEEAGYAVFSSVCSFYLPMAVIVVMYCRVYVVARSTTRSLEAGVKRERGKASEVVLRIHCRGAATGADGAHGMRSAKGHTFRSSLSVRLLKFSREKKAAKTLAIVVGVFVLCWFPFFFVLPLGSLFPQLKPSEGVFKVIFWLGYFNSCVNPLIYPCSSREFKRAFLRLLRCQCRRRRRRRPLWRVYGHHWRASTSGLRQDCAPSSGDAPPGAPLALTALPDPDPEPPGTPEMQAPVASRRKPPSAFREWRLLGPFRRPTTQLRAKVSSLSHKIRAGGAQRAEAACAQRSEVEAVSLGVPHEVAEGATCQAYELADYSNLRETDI
pKi: −log10 of the molar value. Where a name gives a salt, the structure may show the parent alone.
endpoint: pKi

compound="CC1OCC(=O)N(C(=O)NCCCN2CCC(C#N)(c3ccccc3)CC2)C1c1ccc(F)c(F)c1 (single isomer, unassigned; (+))" endpoint=pKi measured_result=5.38
compound="CC1(C)OCC(=O)N(C(=O)NCCCN2CCC(c3ccccn3)CC2)C1c1ccc(F)c(F)c1 (stereo not drawn) [Compound 17, hydrochloride]" endpoint=pKi measured_result=6.24
compound="N#CC1(c2ccccc2)CCC(NCCNC(=O)N2C(=O)COCC2c2ccc(F)c(F)c2)CC1 (stereo not drawn)" endpoint=pKi measured_result=6.69

* * *

Target sequence: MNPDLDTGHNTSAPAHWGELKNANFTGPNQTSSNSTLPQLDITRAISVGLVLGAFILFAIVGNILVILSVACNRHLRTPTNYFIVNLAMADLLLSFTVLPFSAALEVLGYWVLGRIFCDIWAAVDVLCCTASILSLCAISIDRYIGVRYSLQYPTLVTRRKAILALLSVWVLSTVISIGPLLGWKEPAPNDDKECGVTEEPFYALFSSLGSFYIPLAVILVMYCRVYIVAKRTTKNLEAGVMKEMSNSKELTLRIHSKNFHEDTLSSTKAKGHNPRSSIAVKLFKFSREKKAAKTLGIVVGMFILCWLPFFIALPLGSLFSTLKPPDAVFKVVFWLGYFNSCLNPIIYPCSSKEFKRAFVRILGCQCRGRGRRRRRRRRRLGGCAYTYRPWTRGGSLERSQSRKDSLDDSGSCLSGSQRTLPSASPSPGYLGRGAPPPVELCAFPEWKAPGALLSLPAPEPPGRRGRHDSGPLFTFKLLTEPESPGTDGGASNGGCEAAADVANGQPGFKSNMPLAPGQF
pKi: −log10 of the molar value. Structures can show the parent of a compound that is named as a salt.
endpoint: pKi

molecule="CC1(C)OCC(=O)N(C(=O)NCCCN2CCC(c3ccccn3)CC2)C1c1ccc(F)c(F)c1 (stereo not shown) [Compound 17, hydrochloride]" measured_result=6.33
